Here the recorded MIC50 is given for each entry.
# Test system: K. pneumoniae (13883)
# PROTOCOL_DESCRIPTION: MIC assay (Table 1)
# Type: cell-based
# STUDY_CONDITIONS: Klebsiella pneumoniae, isolate 13883, read-out: MIC50 K. Pnuemnoiae
Kindly provide the numeric value in µg/mL only, without the unit symbol.

{"columns": ["MOLECULE", "MEASUREMENT"],
 "data": [
  ["Cc1ccc(-c2cc(-c3cc(OCCCN)cc(OCCCN)c3)cc(-c3cc(OCCCN)cc(OCCCN)c3)c2)cc1 [Compound 110]", 6.25],
  ["N=C(N)NCCCOc1cc(OCCCNC(=N)N)cc(-c2ccc3ccc(-c4cc(OCCCNC(=N)N)cc(OCCCNC(=N)N)c4)cc3c2)c1 [Compound 117]", 1.56]
]}

# next molecule below
Which value of MIC50 has been reported for CC(C)(C)c1ccc(-c2cc(-c3cc(OCCCN)cc(OCCCN)c3)cc(-c3cc(OCCCN)cc(OCCCN)c3)c2)cc1 [Compound 113] in the records?
3.13

###

# System: E. coli (25922)
# PROTOCOL_DESCRIPTION: MIC assay (Table 1)
# Type: cell-based
# STUDY_CONDITIONS: Escherichia coli, isolate 25922
ATTRIBUTE_MEASURED: MIC50 (µg/mL)
Kindly provide the numeric value in µg/mL only, without the unit symbol.

Recorded MIC50, per entry:
{"columns": ["MOLECULE", "ATTRIBUTE_MEASURED", "MEASUREMENT"],
 "data": [
  ["CC(C)(C)c1ccc(-c2cc(-c3cc(OCCCN)cc(OCCCN)c3)cc(-c3cc(OCCCN)cc(OCCCN)c3)c2)cc1 [Compound 113]", "MIC50", 3.13],
  ["NCCCOc1cc(C#Cc2ccc3ccc(C#Cc4cc(OCCCN)cc(OCCCN)c4)cc3c2)cc(OCCCN)c1 [Compound 120]", "MIC50", 3.13]
]}

State its MIC50 on E. coli (25922): NCCCOc1cc(OCCCN)cc(-c2ccc3ccc(-c4cc(OCCCN)cc(OCCCN)c4)cc3c2)c1 [Compound 119]
25

###

# System: K. pneumoniae (13883)
# PROTOCOL_DESCRIPTION: MIC assay (Table 1)
# Type: cell-based
# STUDY_CONDITIONS: Klebsiella pneumoniae, isolate 13883, read-out: MIC50 K. Pnuemnoiae
ATTRIBUTE_MEASURED: log10 of MIC50 (log10 of the value in µg/mL)
Short version: log10 scale, MIC50, µg/mL.

Recorded log10 of MIC50, per entry:
{"columns": ["SMILES", "log10 of MIC50"],
 "data": [
  ["NCCCOc1cc(-c2cc(-c3ccccc3)cc(-c3cc(OCCCN)c(OCCCN)c(OCCCN)c3)c2)cc(OCCCN)c1OCCCN", 1.10],
  ["N=C(N)NCCCOc1cc(OCCCNC(=N)N)cc(-c2cc(-c3ccccc3)cc(-c3cc(OCCCNC(=N)N)cc(OCCCNC(=N)N)c3)c2)c1", 0.19],
  ["N=C(N)NCCCOc1cc(OCCCNC(=N)N)cc(-c2cccc(-c3cc(OCCCNC(=N)N)cc(OCCCNC(=N)N)c3)c2)c1", 0.80],
  ["NCCCOc1cc(OCCCN)cc(-n2cc(-c3ccc4ccc(-c5cn(-c6cc(OCCCN)cc(OCCCN)c6)nn5)cc4c3)nn2)c1", 1.70],
  ["NCCCOc1cc(-c2ccc3ccc(-c4cc(OCCCN)c(OCCCN)c(OCCCN)c4)cc3c2)cc(OCCCN)c1OCCCN", 1.40],
  ["NCCCOc1cc(C#Cc2ccc3ccc(C#Cc4cc(OCCCN)cc(OCCCN)c4)cc3c2)cc(OCCCN)c1", 0.80]
]}

# next compound below
Which value of log10 of MIC50 has been reported for NCCCOc1cc(OCCCN)cc(-c2ccc3ccc(-c4cc(OCCCN)cc(OCCCN)c4)cc3c2)c1 in the records?
1.70

###

Here the recorded MIC50 is given for each entry.
# Test system: S. aureus (27660)
# PROTOCOL_DESCRIPTION: MIC assay (Table 1)
# Type: cell-based
# STUDY_CONDITIONS: Staphylococcus aureus, isolate 27660
Kindly provide the numeric value in µg/mL only, without the unit symbol.

Which value of MIC50 has been reported for N=C(N)NCCCOc1cc(OCCCNC(=N)N)cc(-c2ccc3ccc(-c4cc(OCCCNC(=N)N)cc(OCCCNC(=N)N)c4)cc3c2)c1 in the records?
1.56

Which value of MIC50 has been reported for N=C(N)NCCCOc1cc(OCCCNC(=N)N)cc(-c2cc(-c3ccccc3)cc(-c3cc(OCCCNC(=N)N)cc(OCCCNC(=N)N)c3)c2)c1 in the records?
0.78

###

# System: E. coli (25922)
# PROTOCOL_DESCRIPTION: MIC assay (Table 1)
# Assay type: cell-based
# STUDY_CONDITIONS: Escherichia coli, isolate 25922
Here the recorded MIC50 is given for each entry.
Kindly provide the numeric value in µg/mL only, without the unit symbol.

Recorded MIC50, per entry:
{"columns": ["SMILES", "MIC50 / µg/mL"],
 "data": [
  ["NCCCOc1cc(OCCCN)cc(-c2cccc(-c3cc(OCCCN)cc(OCCCN)c3)c2)c1", 50],
  ["NCCCOc1cc(-c2cn(-c3cc(OCCCN)cc(OCCCN)c3)nn2)cc(-c2cn(-c3cc(OCCCN)cc(OCCCN)c3)nn2)c1", 50],
  ["N=C(N)NCCCOc1cc(-c2cn(-c3cc(OCCCNC(=N)N)cc(OCCCNC(=N)N)c3)nn2)cc(-c2cn(-c3cc(OCCCNC(=N)N)cc(OCCCNC(=N)N)c3)nn2)c1", 50],
  ["N=C(N)NCCCOc1cc(OCCCNC(=N)N)cc(-c2cc(-c3ccccc3)cc(-c3cc(OCCCNC(=N)N)cc(OCCCNC(=N)N)c3)c2)c1", 1.56],
  ["N=C(N)NCCCOc1cc(OCCCNC(=N)N)cc(-c2cccc(-c3cc(OCCCNC(=N)N)cc(OCCCNC(=N)N)c3)c2)c1", 1.56]
]}

# next compound below
State its MIC50 on E. coli (25922): Cc1ccc(-c2cc(-c3cc(OCCCN)cc(OCCCN)c3)cc(-c3cc(OCCCN)cc(OCCCN)c3)c2)cc1
3.13

###

# Tested on: K. pneumoniae (13883)
# PROTOCOL_DESCRIPTION: MIC assay (Table 1)
# Format: cell-based
# STUDY_CONDITIONS: Klebsiella pneumoniae, isolate 13883, read-out: MIC50 K. Pnuemnoiae
Here the recorded MIC50 is given for each entry.

Recorded MIC50, per entry:
{"columns": ["SMILES", "MIC50"],
 "data": [
  ["N=C(N)NCCCOc1cc(-c2cn(-c3cccc(OCCCNC(=N)N)c3)nn2)cc(-c2cn(-c3cccc(OCCCNC(=N)N)c3)nn2)c1", "> 50 µg/mL"],
  ["N=C(N)NCCCOc1cc(-c2cn(-c3cc(OCCCNC(=N)N)cc(OCCCNC(=N)N)c3)nn2)cc(-c2cn(-c3cc(OCCCNC(=N)N)cc(OCCCNC(=N)N)c3)nn2)c1", "> 50 µg/mL"]
]}

# next molecule below
State its MIC50 on K. pneumoniae (13883): NCCCOc1cc(OCCCN)cc(-c2cccc(-c3cc(OCCCN)cc(OCCCN)c3)c2)c1
> 50 µg/mL

###

# Test system: S. aureus (27660)
# PROTOCOL_DESCRIPTION: MIC assay (Table 1)
# Type: cell-based
# STUDY_CONDITIONS: Staphylococcus aureus, isolate 27660
Values of MIC50 strictly less than 10 µg/mL map to Yes, and values of at least 10 µg/mL map to No.

Example entries and their recorded answers appear below.
{"columns": ["SMILES", "LABEL_CLASS"],
 "data": [
  ["N=C(N)NCCCOc1ccc(-n2cc(-c3ccc4ccc(-c5cn(-c6ccc(OCCCNC(=N)N)c(OCCCNC(=N)N)c6)nn5)cc4c3)nn2)cc1OCCCNC(=N)N", "No"],
  ["NCCCOc1cc(OCCCN)cc(-c2ccc3ccc(-c4cc(OCCCN)cc(OCCCN)c4)cc3c2)c1", "No"],
  ["NCCCOc1cc(-c2cc(-c3ccccc3)cc(-c3cc(OCCCN)c(OCCCN)c(OCCCN)c3)c2)cc(OCCCN)c1OCCCN", "No"]
]}

hey, is MIC50 for NCCCOc1cc(-c2ccc3ccc(-c4cc(OCCCN)c(OCCCN)c(OCCCN)c4)cc3c2)cc(OCCCN)c1OCCCN lower than 10 µg/mL or not?
Yes

hey, is MIC50 for NCCCOc1cc(C#Cc2ccc3ccc(C#Cc4cc(OCCCN)cc(OCCCN)c4)cc3c2)cc(OCCCN)c1 lower than 10 µg/mL or not?
Yes

hey, is MIC50 for NCCCOc1cc(-c2cn(-c3cc(OCCCN)cc(OCCCN)c3)nn2)cc(-c2cn(-c3cc(OCCCN)cc(OCCCN)c3)nn2)c1 lower than 10 µg/mL or not?
No

hey, is MIC50 for N=C(N)NCCCOc1cc(-c2cn(-c3cccc(OCCCNC(=N)N)c3)nn2)cc(-c2cn(-c3cccc(OCCCNC(=N)N)c3)nn2)c1 lower than 10 µg/mL or not?
Yes

hey, is MIC50 for Cc1ccc(-c2cc(-c3cc(OCCCN)cc(OCCCN)c3)cc(-c3cc(OCCCN)cc(OCCCN)c3)c2)cc1 lower than 10 µg/mL or not?
Yes

hey, is MIC50 for N=C(N)NCCCOc1cc(OCCCNC(=N)N)cc(-c2cccc(-c3cc(OCCCNC(=N)N)cc(OCCCNC(=N)N)c3)c2)c1 lower than 10 µg/mL or not?
Yes

hey, is MIC50 for CC(C)(C)c1ccc(-c2cc(-c3cc(OCCCN)cc(OCCCN)c3)cc(-c3cc(OCCCN)cc(OCCCN)c3)c2)cc1 lower than 10 µg/mL or not?
Yes
